# Measured Target: hWEE2 (Homo sapiens, UniProt P0C1S8)
# Sequence (P0C1S8 whole entry): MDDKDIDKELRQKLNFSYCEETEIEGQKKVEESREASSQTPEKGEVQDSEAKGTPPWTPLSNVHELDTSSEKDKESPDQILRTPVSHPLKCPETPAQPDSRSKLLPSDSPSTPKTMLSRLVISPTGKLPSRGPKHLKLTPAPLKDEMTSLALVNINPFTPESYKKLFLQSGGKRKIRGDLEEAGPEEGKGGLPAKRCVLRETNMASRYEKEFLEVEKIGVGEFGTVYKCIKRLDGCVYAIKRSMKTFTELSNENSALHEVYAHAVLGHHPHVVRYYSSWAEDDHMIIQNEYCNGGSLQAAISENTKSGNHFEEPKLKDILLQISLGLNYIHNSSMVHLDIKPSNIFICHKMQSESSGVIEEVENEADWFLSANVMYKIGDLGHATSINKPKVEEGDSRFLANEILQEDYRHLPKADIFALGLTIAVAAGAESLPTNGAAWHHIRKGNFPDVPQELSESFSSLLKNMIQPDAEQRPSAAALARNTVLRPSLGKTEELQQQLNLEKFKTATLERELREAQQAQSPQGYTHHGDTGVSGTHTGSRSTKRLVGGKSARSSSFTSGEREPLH

{"columns": ["Molecule", "Measured Target", "IC50"],
 "data": [
  ["Cc1cn(CCN2CCN(c3ccccc3-c3cc(C#N)cc(C(=O)NCCCN4CCCC4)c3)CC2)c2ccccc12 [LLY-507]", "hWEE2 (Homo sapiens, UniProt P0C1S8)", "> 20 µM"]
]}

* * *

# Measured Target: UniProtKB Q99755
# Sequence (Q99755 whole entry): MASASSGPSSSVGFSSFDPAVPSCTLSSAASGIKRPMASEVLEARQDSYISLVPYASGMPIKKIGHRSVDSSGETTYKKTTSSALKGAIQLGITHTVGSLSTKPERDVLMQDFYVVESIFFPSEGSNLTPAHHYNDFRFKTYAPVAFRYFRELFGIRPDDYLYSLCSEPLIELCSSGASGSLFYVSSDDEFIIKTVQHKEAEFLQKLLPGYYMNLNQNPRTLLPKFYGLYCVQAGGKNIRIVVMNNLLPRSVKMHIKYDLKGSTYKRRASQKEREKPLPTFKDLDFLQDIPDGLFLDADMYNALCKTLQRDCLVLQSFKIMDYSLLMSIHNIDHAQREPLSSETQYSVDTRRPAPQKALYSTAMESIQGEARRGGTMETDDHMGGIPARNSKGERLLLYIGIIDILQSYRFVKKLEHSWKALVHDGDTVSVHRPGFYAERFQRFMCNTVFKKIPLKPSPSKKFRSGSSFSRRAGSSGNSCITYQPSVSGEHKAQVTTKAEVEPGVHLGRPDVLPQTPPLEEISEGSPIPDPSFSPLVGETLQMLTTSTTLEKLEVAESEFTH

{"columns": ["Molecule", "IC50 (µM)"],
 "data": [
  ["Cc1cn(CCN2CCN(c3ccccc3-c3cc(C#N)cc(C(=O)NCCCN4CCCC4)c3)CC2)c2ccccc12 [LLY-507]", 16.4]
]}

* * *

# Measured Target: hMAP3K1 (Homo sapiens)
Measured Parameter: IC50

{"columns": ["Compound", "Measured Parameter", "Meas Value"],
 "data": [
  ["Cc1cn(CCN2CCN(c3ccccc3-c3cc(C#N)cc(C(=O)NCCCN4CCCC4)c3)CC2)c2ccccc12 [LLY-507]", "IC50", "> 20 µM"]
]}

* * *

# Measured Target: hKIT(A829P) (Homo sapiens, UniProt P10721, A829P)
# Method Notes: KINOMEscan

{"columns": ["Compound", "Measured Target", "IC50"],
 "data": [
  ["Cc1cn(CCN2CCN(c3ccccc3-c3cc(C#N)cc(C(=O)NCCCN4CCCC4)c3)CC2)c2ccccc12 [LLY-507]", "hKIT(A829P) (Homo sapiens, UniProt P10721, A829P)", "> 20 µM"]
]}

* * *

# Measured Target: UniProt:P22607
pIC50: −log10 of the molar value.
Measured Parameter: pIC50

{"columns": ["Smiles Str", "Meas Value"],
 "data": [
  ["Cc1cn(CCN2CCN(c3ccccc3-c3cc(C#N)cc(C(=O)NCCCN4CCCC4)c3)CC2)c2ccccc12", "< 4.70"]
]}

* * *

# Measured Target: hEPHA2 (Homo sapiens)

{"columns": ["Compound", "IC50"],
 "data": [
  ["Cc1cn(CCN2CCN(c3ccccc3-c3cc(C#N)cc(C(=O)NCCCN4CCCC4)c3)CC2)c2ccccc12 [LLY-507]", "> 20 µM"]
]}

* * *

# Measured Target: hTRKB (Homo sapiens)

{"columns": ["Smiles Str", "IC50"],
 "data": [
  ["Cc1cn(CCN2CCN(c3ccccc3-c3cc(C#N)cc(C(=O)NCCCN4CCCC4)c3)CC2)c2ccccc12", "> 20 µM"]
]}

* * *

# Measured Target: UniProt Q9HBH9
Measured Parameter: IC50

{"columns": ["Compound", "Measured Target", "Meas Value"],
 "data": [
  ["Cc1cn(CCN2CCN(c3ccccc3-c3cc(C#N)cc(C(=O)NCCCN4CCCC4)c3)CC2)c2ccccc12 [LLY-507]", "UniProt Q9HBH9", "> 20 µM"]
]}

* * *

# Measured Target: hEGFR (Homo sapiens)
# Sequence (P00533 25-1210): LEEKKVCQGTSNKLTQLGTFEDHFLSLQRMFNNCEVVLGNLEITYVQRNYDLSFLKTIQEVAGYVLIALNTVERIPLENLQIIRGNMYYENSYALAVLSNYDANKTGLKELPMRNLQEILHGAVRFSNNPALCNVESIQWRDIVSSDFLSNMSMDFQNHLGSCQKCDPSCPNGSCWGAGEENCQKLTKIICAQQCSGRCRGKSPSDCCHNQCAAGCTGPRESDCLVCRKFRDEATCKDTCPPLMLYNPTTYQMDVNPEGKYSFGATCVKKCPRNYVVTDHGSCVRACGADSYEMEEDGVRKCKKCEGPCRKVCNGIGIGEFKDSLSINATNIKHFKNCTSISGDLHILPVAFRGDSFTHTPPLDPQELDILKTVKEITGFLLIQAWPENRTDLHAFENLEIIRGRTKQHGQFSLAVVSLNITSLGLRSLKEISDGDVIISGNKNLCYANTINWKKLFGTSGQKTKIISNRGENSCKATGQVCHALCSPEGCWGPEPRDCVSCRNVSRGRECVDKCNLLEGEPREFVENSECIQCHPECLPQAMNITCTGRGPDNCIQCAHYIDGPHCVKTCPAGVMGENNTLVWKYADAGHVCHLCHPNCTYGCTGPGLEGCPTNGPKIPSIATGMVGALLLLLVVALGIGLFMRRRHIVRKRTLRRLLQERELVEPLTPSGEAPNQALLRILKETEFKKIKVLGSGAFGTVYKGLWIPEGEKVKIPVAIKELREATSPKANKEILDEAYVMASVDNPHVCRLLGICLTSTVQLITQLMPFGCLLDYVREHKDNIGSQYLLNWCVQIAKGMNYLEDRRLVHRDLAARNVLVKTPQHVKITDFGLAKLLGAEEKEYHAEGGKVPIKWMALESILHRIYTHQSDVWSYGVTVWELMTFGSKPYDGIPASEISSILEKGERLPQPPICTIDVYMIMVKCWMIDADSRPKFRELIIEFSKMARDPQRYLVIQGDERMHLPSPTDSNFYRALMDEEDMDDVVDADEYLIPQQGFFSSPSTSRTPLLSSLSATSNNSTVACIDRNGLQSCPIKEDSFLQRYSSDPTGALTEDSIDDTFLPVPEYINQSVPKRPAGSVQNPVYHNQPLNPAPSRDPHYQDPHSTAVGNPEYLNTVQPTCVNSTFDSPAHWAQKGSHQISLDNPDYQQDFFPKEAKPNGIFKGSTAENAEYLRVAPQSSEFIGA
pIC50: −log10 of the molar value.
Measured Parameter: pIC50

{"columns": ["Compound", "Measured Parameter", "Meas Value"],
 "data": [
  ["Cc1cn(CCN2CCN(c3ccccc3-c3cc(C#N)cc(C(=O)NCCCN4CCCC4)c3)CC2)c2ccccc12 [LLY-507]", "pIC50", "< 4.70"]
]}

* * *

Protein target, amino acids: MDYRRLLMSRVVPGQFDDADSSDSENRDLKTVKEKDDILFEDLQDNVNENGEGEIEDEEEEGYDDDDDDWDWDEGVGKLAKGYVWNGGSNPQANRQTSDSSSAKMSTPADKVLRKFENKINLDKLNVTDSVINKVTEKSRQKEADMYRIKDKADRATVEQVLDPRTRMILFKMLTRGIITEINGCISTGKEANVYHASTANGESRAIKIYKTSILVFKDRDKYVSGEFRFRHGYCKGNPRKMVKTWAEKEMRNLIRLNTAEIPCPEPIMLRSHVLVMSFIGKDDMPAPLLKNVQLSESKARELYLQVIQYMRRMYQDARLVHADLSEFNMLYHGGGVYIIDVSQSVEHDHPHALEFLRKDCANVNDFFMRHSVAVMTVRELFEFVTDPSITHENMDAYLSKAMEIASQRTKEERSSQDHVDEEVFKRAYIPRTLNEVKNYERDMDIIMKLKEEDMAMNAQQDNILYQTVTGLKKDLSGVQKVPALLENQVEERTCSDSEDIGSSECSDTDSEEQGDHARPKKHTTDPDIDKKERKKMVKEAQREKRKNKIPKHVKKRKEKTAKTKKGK
Measured Parameter: IC50

{"columns": ["Smiles Str", "Measured Parameter", "Meas Value"],
 "data": [
  ["Cc1cn(CCN2CCN(c3ccccc3-c3cc(C#N)cc(C(=O)NCCCN4CCCC4)c3)CC2)c2ccccc12", "IC50", "> 20 µM"]
]}

* * *

# Measured Target: hCLK1 (Homo sapiens)
# Construct: purchased DiscoverX
# Sequence (P49759 whole entry): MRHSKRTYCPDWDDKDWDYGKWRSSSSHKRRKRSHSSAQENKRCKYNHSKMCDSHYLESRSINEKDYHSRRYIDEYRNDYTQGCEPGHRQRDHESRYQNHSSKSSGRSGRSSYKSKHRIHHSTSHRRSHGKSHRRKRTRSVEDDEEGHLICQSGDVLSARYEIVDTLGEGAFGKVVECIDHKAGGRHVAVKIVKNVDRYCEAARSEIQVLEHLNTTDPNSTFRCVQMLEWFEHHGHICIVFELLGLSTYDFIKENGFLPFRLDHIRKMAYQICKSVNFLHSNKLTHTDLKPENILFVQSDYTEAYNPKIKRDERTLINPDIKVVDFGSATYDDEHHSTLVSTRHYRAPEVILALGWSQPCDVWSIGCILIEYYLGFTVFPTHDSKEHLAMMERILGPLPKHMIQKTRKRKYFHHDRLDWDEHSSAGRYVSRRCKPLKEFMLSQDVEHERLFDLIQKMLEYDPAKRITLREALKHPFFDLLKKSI
# Method Notes: KINOMEscan
# Assay type: binding

{"columns": ["Smiles Str", "IC50"],
 "data": [
  ["Cc1cn(CCN2CCN(c3ccccc3-c3cc(C#N)cc(C(=O)NCCCN4CCCC4)c3)CC2)c2ccccc12", "> 20 µM"]
]}

* * *

# Measured Target: UniProt Q9H0K1
pIC50: −log10 of the molar value.

{"columns": ["Smiles Str", "pIC50"],
 "data": [
  ["Cc1cn(CCN2CCN(c3ccccc3-c3cc(C#N)cc(C(=O)NCCCN4CCCC4)c3)CC2)c2ccccc12", "< 4.70"]
]}

* * *

# Measured Target: UniProt O95819

{"columns": ["Molecule", "IC50"],
 "data": [
  ["Cc1cn(CCN2CCN(c3ccccc3-c3cc(C#N)cc(C(=O)NCCCN4CCCC4)c3)CC2)c2ccccc12 [LLY-507]", "> 20 µM"]
]}

* * *

# Measured Target: hTIE1 (Homo sapiens, UniProt P35590)
# Sequence (P35590 22-1138): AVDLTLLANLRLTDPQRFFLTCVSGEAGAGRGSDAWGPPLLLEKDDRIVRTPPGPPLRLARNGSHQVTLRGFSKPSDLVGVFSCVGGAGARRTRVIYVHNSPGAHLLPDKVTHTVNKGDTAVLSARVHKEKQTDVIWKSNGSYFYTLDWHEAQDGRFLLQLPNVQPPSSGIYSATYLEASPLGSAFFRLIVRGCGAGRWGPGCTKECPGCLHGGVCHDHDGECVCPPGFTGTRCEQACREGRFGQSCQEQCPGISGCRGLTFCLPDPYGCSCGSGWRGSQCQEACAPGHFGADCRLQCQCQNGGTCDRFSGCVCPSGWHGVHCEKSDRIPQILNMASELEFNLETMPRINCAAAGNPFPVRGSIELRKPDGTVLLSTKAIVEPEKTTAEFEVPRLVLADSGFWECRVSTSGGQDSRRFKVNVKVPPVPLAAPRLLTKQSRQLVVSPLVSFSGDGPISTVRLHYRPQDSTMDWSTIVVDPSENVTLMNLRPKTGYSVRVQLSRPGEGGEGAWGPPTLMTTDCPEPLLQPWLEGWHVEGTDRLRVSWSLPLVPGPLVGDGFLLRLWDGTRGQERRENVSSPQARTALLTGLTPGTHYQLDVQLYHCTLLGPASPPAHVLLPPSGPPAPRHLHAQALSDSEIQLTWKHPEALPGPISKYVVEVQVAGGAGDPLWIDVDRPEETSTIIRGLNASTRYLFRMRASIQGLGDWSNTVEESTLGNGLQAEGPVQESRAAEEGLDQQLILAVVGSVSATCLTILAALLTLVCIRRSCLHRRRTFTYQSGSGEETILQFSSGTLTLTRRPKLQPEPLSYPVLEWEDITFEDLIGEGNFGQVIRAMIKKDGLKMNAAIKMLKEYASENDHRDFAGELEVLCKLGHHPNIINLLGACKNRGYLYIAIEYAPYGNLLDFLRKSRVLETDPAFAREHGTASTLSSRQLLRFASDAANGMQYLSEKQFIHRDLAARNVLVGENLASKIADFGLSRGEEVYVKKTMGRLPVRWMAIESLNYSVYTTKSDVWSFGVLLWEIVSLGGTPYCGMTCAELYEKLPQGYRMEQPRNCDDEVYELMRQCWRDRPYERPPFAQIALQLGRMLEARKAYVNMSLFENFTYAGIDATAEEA
pIC50: −log10 of the molar value.

{"columns": ["Smiles Str", "Measured Target", "pIC50"],
 "data": [
  ["Cc1cn(CCN2CCN(c3ccccc3-c3cc(C#N)cc(C(=O)NCCCN4CCCC4)c3)CC2)c2ccccc12", "hTIE1 (Homo sapiens, UniProt P35590)", "< 4.70"]
]}

* * *

# Measured Target: hHIPK3 (Homo sapiens)

{"columns": ["Smiles Str", "Measured Target", "IC50"],
 "data": [
  ["Cc1cn(CCN2CCN(c3ccccc3-c3cc(C#N)cc(C(=O)NCCCN4CCCC4)c3)CC2)c2ccccc12", "hHIPK3 (Homo sapiens)", "> 20 µM"]
]}

* * *

# Measured Target: hTGFBR2 (Homo sapiens, UniProt P37173)
# Construct: purchased DiscoverX
# Sequence (P37173 23-567): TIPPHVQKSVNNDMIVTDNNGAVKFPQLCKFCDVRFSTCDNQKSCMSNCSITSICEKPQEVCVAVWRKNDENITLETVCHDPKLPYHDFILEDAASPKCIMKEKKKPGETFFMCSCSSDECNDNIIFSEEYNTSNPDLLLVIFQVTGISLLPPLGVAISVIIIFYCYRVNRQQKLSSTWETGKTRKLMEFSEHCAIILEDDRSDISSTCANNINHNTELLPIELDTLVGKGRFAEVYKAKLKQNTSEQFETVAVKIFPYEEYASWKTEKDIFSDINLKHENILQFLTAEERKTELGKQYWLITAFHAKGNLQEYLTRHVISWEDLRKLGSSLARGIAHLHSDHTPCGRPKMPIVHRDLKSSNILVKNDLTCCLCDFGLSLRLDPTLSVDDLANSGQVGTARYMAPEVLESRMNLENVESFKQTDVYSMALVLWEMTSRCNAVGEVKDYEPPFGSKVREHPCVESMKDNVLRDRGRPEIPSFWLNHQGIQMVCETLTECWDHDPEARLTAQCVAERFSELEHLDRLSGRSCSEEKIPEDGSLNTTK
# Method Notes: KINOMEscan
# Assay type: binding

{"columns": ["Molecule", "IC50"],
 "data": [
  ["Cc1cn(CCN2CCN(c3ccccc3-c3cc(C#N)cc(C(=O)NCCCN4CCCC4)c3)CC2)c2ccccc12 [LLY-507]", "> 20 µM"]
]}

* * *

# Measured Target: hJNK2 (Homo sapiens, UniProt P45984)
# Construct: purchased DiscoverX (KINOMEscan panel)
# Sequence (P45984 whole entry): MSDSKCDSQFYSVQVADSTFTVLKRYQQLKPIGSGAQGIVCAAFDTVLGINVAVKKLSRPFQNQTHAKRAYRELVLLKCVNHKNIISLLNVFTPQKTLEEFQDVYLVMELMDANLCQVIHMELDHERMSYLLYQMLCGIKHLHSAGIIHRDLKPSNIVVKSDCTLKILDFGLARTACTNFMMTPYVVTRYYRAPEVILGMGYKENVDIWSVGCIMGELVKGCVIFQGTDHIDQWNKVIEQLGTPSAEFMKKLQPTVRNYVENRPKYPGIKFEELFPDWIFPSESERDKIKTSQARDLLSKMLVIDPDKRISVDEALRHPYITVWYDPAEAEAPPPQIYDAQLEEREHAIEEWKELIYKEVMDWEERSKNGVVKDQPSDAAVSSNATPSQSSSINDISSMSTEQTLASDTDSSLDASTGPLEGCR
# Method Notes: KINOMEscan
# Format: binding

{"columns": ["Compound", "IC50"],
 "data": [
  ["Cc1cn(CCN2CCN(c3ccccc3-c3cc(C#N)cc(C(=O)NCCCN4CCCC4)c3)CC2)c2ccccc12 [LLY-507]", "> 20 µM"]
]}

* * *

# Measured Target: hACVR2B (Homo sapiens, UniProt Q13705)
# Construct: purchased DiscoverX (KINOMEscan platform)
# Method Notes: KINOMEscan
# Type: binding
pIC50: −log10 of the molar value.

{"columns": ["Smiles Str", "pIC50"],
 "data": [
  ["Cc1cn(CCN2CCN(c3ccccc3-c3cc(C#N)cc(C(=O)NCCCN4CCCC4)c3)CC2)c2ccccc12", "< 4.70"]
]}

* * *

# Measured Target: UniProt:P36888

{"columns": ["Compound", "Measured Target", "IC50"],
 "data": [
  ["Cc1cn(CCN2CCN(c3ccccc3-c3cc(C#N)cc(C(=O)NCCCN4CCCC4)c3)CC2)c2ccccc12 [LLY-507]", "UniProt:P36888", "> 20 µM"]
]}

* * *

# Measured Target: hTIE2 (Homo sapiens, UniProt Q02763)
Measured Parameter: IC50

{"columns": ["Compound", "Meas Value"],
 "data": [
  ["Cc1cn(CCN2CCN(c3ccccc3-c3cc(C#N)cc(C(=O)NCCCN4CCCC4)c3)CC2)c2ccccc12 [LLY-507]", "> 20 µM"]
]}

* * *

# Measured Target: hULK2 (Homo sapiens)
# Construct: purchased DiscoverX
# Sequence (Q8IYT8 1-1036): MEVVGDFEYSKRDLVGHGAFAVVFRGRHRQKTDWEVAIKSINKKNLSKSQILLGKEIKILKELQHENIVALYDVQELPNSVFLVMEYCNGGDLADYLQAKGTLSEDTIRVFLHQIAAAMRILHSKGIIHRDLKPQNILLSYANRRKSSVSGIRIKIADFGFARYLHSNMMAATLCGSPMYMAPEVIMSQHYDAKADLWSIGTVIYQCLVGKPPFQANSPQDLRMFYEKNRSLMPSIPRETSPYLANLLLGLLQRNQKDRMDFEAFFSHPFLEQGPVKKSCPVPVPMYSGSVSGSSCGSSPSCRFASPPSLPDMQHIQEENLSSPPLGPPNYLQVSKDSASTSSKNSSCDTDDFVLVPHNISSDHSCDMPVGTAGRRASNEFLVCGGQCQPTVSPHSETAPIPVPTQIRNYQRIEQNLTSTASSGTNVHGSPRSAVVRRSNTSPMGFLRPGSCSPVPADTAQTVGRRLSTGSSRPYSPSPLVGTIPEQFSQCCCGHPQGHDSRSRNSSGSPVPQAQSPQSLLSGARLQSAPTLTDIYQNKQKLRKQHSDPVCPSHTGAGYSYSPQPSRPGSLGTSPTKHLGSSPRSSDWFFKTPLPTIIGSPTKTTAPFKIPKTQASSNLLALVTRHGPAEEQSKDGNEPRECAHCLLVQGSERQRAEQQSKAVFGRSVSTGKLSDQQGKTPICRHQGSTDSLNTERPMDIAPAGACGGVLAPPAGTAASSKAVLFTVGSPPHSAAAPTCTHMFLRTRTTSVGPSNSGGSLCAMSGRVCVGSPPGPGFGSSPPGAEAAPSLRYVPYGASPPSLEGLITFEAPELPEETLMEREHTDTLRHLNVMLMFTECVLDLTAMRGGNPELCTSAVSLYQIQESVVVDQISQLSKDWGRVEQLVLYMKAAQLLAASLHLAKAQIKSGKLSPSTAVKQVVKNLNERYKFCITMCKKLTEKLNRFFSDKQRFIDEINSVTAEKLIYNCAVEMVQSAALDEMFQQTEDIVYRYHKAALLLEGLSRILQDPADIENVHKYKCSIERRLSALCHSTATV
# Method Notes: KINOMEscan
# Assay type: binding

{"columns": ["Smiles Str", "IC50"],
 "data": [
  ["Cc1cn(CCN2CCN(c3ccccc3-c3cc(C#N)cc(C(=O)NCCCN4CCCC4)c3)CC2)c2ccccc12", "> 20 µM"]
]}
